Source: the supplement of paper PMC10307832

test system: HCC-827; experiment: relative viability (nuclei count vs DMSO), 5 days (fraction); higher = more cells survive; conditions: first compound 0.01581 µM
endpointName: relative viability
One number for each entry.

Answered examples (3):
compound	assayedTarget	experimentalValue
Nc1ccn([C@@H]2O[C@H](CO)[C@@H](O)[C@@H]2O)c(=O)n1 [Cytarabine] + CS(=O)(=O)CCNCc1ccc(-c2ccc3ncnc(Nc4ccc(OCc5cccc(F)c5)c(Cl)c4)c3c2)o1 [Lapatinib] (partner 2 µM)	HCC-827	0.16
COc1cc2nccc(Oc3ccc(NC(=O)Nc4cc(C)on4)c(Cl)c3)c2cc1OC [Tivozanib] + CS(=O)(=O)N1CCN(Cc2cc3nc(-c4cccc5[nH]ncc45)nc(N4CCOCC4)c3s2)CC1 [Pictilisib] (partner 1 µM)	HCC-827	0.924
COc1cc2nccc(Oc3ccc(NC(=O)Nc4cc(C)on4)c(Cl)c3)c2cc1OC [Tivozanib] + Cc1nc(Nc2ncc(C(=O)Nc3c(C)cccc3Cl)s2)cc(N2CCN(CCO)CC2)n1 [Dasatinib] (partner 0.075 µM)	HCC-827	0.36

Next up:
Record COc1cc2nccc(Oc3ccc(NC(=O)Nc4cc(C)on4)c(Cl)c3)c2cc1OC [Tivozanib] + C[C@@H](Oc1cc(-c2cnn(C3CCNCC3)c2)cnc1N)c1c(Cl)ccc(F)c1Cl [Crizotinib] (partner 1 µM) . Reported relative viability: 0.928

* * *

Provide the reported relative viability of each item.
system: NCI-H2347; assay: relative viability (nuclei count vs DMSO), 5 days (fraction); higher = more cells survive; settings: first compound 0.002 µM
Answers are plain numbers.

For the 3 compounds below, give their relative viability values.
1. CC(=O)O[C@@]12CO[C@@H]1C[C@H](O)[C@@]1(C)C(=O)[C@H](O)C3=C(C)[C@@H](OC(=O)[C@H](O)[C@@H](NC(=O)OC(C)(C)C)c4ccccc4)C[C@@](O)([C@@H](OC(=O)c4ccccc4)[C@H]21)C3(C)C [Docetaxel] + Cc1nc(Nc2ncc(C(=O)Nc3c(C)cccc3Cl)s2)cc(N2CCN(CCO)CC2)n1 [Dasatinib] (partner 0.075 µM)
2. CC(=O)O[C@@]12CO[C@@H]1C[C@H](O)[C@@]1(C)C(=O)[C@H](O)C3=C(C)[C@@H](OC(=O)[C@H](O)[C@@H](NC(=O)OC(C)(C)C)c4ccccc4)C[C@@](O)([C@@H](OC(=O)c4ccccc4)[C@H]21)C3(C)C [Docetaxel] + Nc1nc2[nH]cc(CCc3ccc(C(=O)N[C@@H](CCC(=O)O)C(=O)O)cc3)c2c(=O)[nH]1 [Pemetrexed] (partner 0.2 µM)
3. CC(=O)O[C@@]12CO[C@@H]1C[C@H](O)[C@@]1(C)C(=O)[C@H](O)C3=C(C)[C@@H](OC(=O)[C@H](O)[C@@H](NC(=O)OC(C)(C)C)c4ccccc4)C[C@@](O)([C@@H](OC(=O)c4ccccc4)[C@H]21)C3(C)C [Docetaxel] + CS(=O)(=O)CCNCc1ccc(-c2ccc3ncnc(Nc4ccc(OCc5cccc(F)c5)c(Cl)c4)c3c2)o1 [Lapatinib] (partner 2 µM)

1: 0.242; 2: 0.419; 3: 0.839

* * *

test system: NCI-H1651; test: relative viability (nuclei count vs DMSO), 5 days (fraction); higher = more cells survive; conditions: first compound 0.4 µM
endpointName: relative viability

molecule	relative viability
Cc1sc2c(c1C)C(c1ccc(Cl)cc1)=N[C@@H](CC(=O)OC(C)(C)C)c1nnc(C)n1-2 [JQ1] + Cc1nc(Nc2ncc(C(=O)Nc3c(C)cccc3Cl)s2)cc(N2CCN(CCO)CC2)n1 [Dasatinib] (partner 0.075 µM)	0.306
Cc1sc2c(c1C)C(c1ccc(Cl)cc1)=N[C@@H](CC(=O)OC(C)(C)C)c1nnc(C)n1-2 [JQ1] + C[C@]1(O)C[C@@H](c2nc(-c3ccc4ccc(-c5ccccc5)nc4c3)c3c(N)nccn32)C1 [Linsitinib] (partner 1 µM)	0.797
Cc1sc2c(c1C)C(c1ccc(Cl)cc1)=N[C@@H](CC(=O)OC(C)(C)C)c1nnc(C)n1-2 [JQ1] + O=C(c1cc(Cc2n[nH]c(=O)c3ccccc23)ccc1F)N1CCN(C(=O)C2CC2)CC1 [Olaparib] (partner 8 µM)	0.151

Next up:
Cc1sc2c(c1C)C(c1ccc(Cl)cc1)=N[C@@H](CC(=O)OC(C)(C)C)c1nnc(C)n1-2 [JQ1] + COc1cc2c(Oc3ccc(NC(=O)C4(C(=O)Nc5ccc(F)cc5)CC4)cc3F)ccnc2cc1OCCCN1CCOCC1 [Foretinib] (partner 0.25 µM) on NCI-H1651 gives relative viability = 0.625
